tested on: ORYSAT (Rice, Tebonnet); assay: Postemergence herbicidal evaluation; assay type: in vivo, Oryza sativa, (L.) Tebonnet; conditions: postemergence, rate 0.0625 kg/ha
Label condition met when ORYSAT herbicidal rating is strictly below 4; otherwise label condition not met.

1. CCOC(=O)CN1C(=O)C(CC(=O)NOC)SC1=Nc1cc(-n2c(=O)cc(C(F)(F)F)n(C)c2=O)c(F)cc1Cl (stereo not drawn)    condition met
2. CCOC(=O)/C=C1/S/C(=N/c2cc(-n3c(=O)cc(C(F)(F)F)n(C)c3=O)c(F)cc2Cl)N(CC(=O)OCC)C1=O    condition not met
3. CCOC(=O)CN1C(=O)C(CC(=O)NO)S/C1=N/c1cc(-n2c(=O)cc(C(F)(F)F)n(C)c2=O)c(F)cc1Cl (stereo not drawn)    condition met
4. Cn1c(C(F)(F)F)cc(=O)n(-c2cc(N=C3SCC(=O)N3Cc3ccccc3)c(Cl)cc2F)c1=O    condition met
5. C=CCN1C(=O)C(CC(=O)OCCF)SC1=Nc1cc(-n2c(=O)cc(C(F)(F)F)n(C)c2=O)c(F)cc1Cl (stereo not drawn)    condition not met

Item CCC1SC(=Nc2cc(N3C(=O)C4=C(CCCC4)C3=O)c(F)cc2Cl)N(C)C1=O (stereo not drawn) : ORYSAT herbicidal rating beneath 4, strictly?
condition met

Threshold test, ORYSAT herbicidal rating < 4: CN1C(=O)CS/C1=N/c1cc(-n2c(=O)cc(C(F)(F)F)n(C)c2=O)c(F)cc1Cl
condition not met

Say whether its ORYSAT herbicidal rating is strictly beneath 4. Entry: C=CCN1C(=O)C(CC(=O)NS(C)(=O)=O)SC1=Nc1cc(-n2c(=O)cc(C(F)(F)F)n(C)c2=O)c(F)cc1Cl (stereo not drawn)
condition met

Is the reported ORYSAT herbicidal rating for C=CCN1C(=O)CSC1=Nc1cc(N2C(=O)C3=C(CCCC3)C2=O)c(F)cc1Cl strictly below 4?
condition met

----------
system: ORYSAT (Rice, Tebonnet); assay: Postemergence herbicidal evaluation; assay type: in vivo, Oryza sativa, (L.) Tebonnet; details: Rate 0.0158 kg/ha
Postemergence herbicidal rating ORYSAT by entry:
Could you respond with only the numeric value?

Recorded Postemergence herbicidal rating ORYSAT, per entry:
1) Cn1c(C(F)(F)F)cc(=O)n(-c2cc(N=C3NC(=O)CS3)c(Cl)cc2F)c1=O [Compound 39]    1.5
2) CCOC(=O)CN1C(=O)C(CC(N)=O)S/C1=N/c1cc(-n2c(=O)cc(C(F)(F)F)n(C)c2=O)c(F)cc1Cl (stereo not shown) [Compound 56]    1.5
3) C=CCN1C(=O)C(CC(=O)OC)SC1=Nc1cc(-n2c(=O)cc(C(F)(F)F)n(C)c2=O)c(F)cc1Cl (stereo not shown) [Compound 64]    6.0

Now for the compound whose Postemergence herbicidal rating ORYSAT we want.
Data request, read-out Postemergence herbicidal rating ORYSAT, for COC(=O)CCCN1C(=O)CSC1=Nc1cc(-n2c(=O)cc(C(F)(F)F)n(C)c2=O)c(F)cc1Cl [Compound 29]
1.0

----------
Quick reference: Herbicidal rating SAGPY of the listed items.
test system: SAGPY (Arrowhead (Pygmaea)); assay: Preemergence weed control under flooded paddy conditions; format: in vivo, Sagittaria pygmaea; settings: 0.2500 kg/ha, rated 3-4 weeks after treatment
Provide a numeric answer; units are not to be included.

See these solved cases before continuing.
1) C[C@@H](C(=O)O)N1C(=O)CS/C1=N/c1cc(-n2c(=O)cc(C(F)(F)F)n(C)c2=O)c(F)cc1Cl [Compound 51]    0.0
2) Cn1c(C(F)(F)F)cc(=O)n(-c2cc(N=C3SCC(=O)N3CC(=O)OC(C)(C)C)c(Cl)cc2F)c1=O [Compound 43]    9.0
3) COC(=O)CCCN1C(=O)CSC1=Nc1cc(-n2c(=O)cc(C(F)(F)F)n(C)c2=O)c(F)cc1Cl [Compound 29]    0.0

// moving on: another record for Herbicidal rating SAGPY
Find the recorded Herbicidal rating SAGPY belonging to CCOC(=O)CN1C(=O)CN(C)C1=Nc1cc(-n2c(=O)cc(C(F)(F)F)n(C)c2=O)c(F)cc1Cl [Compound 25] and report it.
5.0

From: patent US20020137929A1
